Origin of the recorded values: patent US10464911B2

# testedTarget: human recombinant HDAC6 (Homo sapiens (Human))
# Sequence (Q9UBN7 whole entry): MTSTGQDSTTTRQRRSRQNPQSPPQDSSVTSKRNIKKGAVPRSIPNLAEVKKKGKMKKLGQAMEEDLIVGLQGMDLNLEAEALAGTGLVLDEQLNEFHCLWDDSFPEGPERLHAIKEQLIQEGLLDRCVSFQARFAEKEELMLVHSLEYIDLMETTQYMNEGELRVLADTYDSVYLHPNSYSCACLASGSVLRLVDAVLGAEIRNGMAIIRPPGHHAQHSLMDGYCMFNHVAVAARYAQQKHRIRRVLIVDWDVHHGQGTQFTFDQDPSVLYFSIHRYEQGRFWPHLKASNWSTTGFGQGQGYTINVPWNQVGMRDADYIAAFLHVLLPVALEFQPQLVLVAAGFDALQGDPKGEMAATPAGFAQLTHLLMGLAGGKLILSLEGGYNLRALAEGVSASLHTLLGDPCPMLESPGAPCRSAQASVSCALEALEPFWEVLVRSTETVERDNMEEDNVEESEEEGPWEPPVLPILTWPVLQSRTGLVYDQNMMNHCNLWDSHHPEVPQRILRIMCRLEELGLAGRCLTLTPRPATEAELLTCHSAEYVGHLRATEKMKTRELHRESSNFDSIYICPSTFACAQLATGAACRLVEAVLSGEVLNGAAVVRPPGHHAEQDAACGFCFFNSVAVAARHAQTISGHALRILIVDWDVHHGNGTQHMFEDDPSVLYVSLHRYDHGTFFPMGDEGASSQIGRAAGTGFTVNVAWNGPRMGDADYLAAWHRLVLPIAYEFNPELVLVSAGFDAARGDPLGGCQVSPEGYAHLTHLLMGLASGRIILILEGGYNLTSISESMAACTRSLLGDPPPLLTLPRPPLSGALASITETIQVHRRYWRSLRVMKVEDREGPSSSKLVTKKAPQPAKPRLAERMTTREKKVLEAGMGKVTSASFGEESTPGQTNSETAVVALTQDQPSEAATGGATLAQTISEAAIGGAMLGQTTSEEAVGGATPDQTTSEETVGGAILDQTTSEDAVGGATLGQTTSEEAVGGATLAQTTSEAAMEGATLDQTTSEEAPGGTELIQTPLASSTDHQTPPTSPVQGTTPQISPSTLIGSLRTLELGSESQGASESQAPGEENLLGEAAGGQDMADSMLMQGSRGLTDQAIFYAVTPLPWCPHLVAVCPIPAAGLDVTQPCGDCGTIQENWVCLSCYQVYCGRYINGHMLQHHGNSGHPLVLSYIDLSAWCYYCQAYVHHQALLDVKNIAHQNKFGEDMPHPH
# runDescription: HDAC6 enzyme activity inhibition assay (HDAC Fluorimetric Drug Discovery Kit)
# condition: human recombinant HDAC6, same protocol as HDAC1 test
Where a name gives a salt, the structure may show the parent alone.
property: IC50 (nM)

{"columns": ["compound", "testResult"],
 "data": [
  ["O=S(=O)(N1CCNCC1)N(Cc1ccc(-c2nnc(C(F)F)o2)cc1F)c1cccnc1 [Compound 11317, Dihydrochloride]", 81],
  ["CCC(=O)N1CCN(S(=O)(=O)N(Cc2ccc(-c3nnc(C(F)F)o3)cc2F)c2ccccc2)CC1", 31],
  ["CS(=O)(=O)N1CCN(S(=O)(=O)N(Cc2ccc(-c3nnc(C(F)F)o3)cc2F)c2ccccc2)CC1", 38],
  ["Cc1cccc(N(Cc2ccc(-c3nnc(C(F)F)o3)cn2)S(=O)(=O)N2CCN(C3COC3)CC2)c1", 49],
  ["CN1CCN(S(=O)(=O)N(Cc2ccc(-c3nnc(C(F)F)o3)cc2F)c2cccc(F)c2)CC1", 25],
  ["Cl.O=S(=O)(N1CCC2(CC1)CNC2)N(Cc1ccc(-c2nnc(C(F)F)o2)cc1)c1ccccc1 [Compound 11787, Hydrochloride]", 96],
  ["CCC(=O)N1CCN(S(=O)(=O)N(Cc2ccc(-c3nnc(C(F)(F)F)o3)cc2F)c2ccccc2)CC1", 133]
]}
